B1: RAB40A (parent)
chain: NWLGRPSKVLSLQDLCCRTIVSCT

variants of: B1; test: protein stability index of a GFP-peptide fusion (GPS, HEK-293T) (PSI 1-6); higher = more stable; conditions: c terminus: a fixed tail appended;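 further: lentivirally expressed fusions sorted by FACS into six bins by GFP to DsRed ratio, PSI derived from sequencing read proportions per bin multiplied by bin number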
Record form. Attribute: protein stability index. Fill in for each entry.
Give bare numbers.

Below are worked cases with known answers.
{"query.sequence": "NWLHRPSKVLSLQDLCCRTIVSCT [G4H]", "protein stability index": 2.33}
{"query.sequence": "NWLGRPSKVLSLQDLCCRTIDSCT [V21D]", "protein stability index": 3.02}
{"query.sequence": "NWLTRPSKVLSLQDLCCRTIVSCT [G4T]", "protein stability index": 2.07}
{"query.sequence": "NWLGRPSKVLSLQDLCCRDIVSCT [T19D]", "protein stability index": 2.64}
{"query.sequence": "NWLGRPSKVLSLQDLCCRTAVSCT [I20A]", "protein stability index": 1.94}

Could you report protein stability index for every entry in the following list?
1. NWLGRPSKVLSLQDLCCRFIVSCT [T19F]
2. NWLGRPSDVLSLQDLCCRTIVSCT [K8D]

Data returned:
2.26
2.1

State the recorded protein stability index for every item in the following list.
1. NWLGRPSKVLSLQPLCCRTIVSCT [D14P]
2. NWLGAPSKVLSLQDLCCRTIVSCT [R5A]
3. NWLGRPSKVLSLEDLCCRTIVSCT [Q13E]
4. NWLGRPSKVLSLQDSCCRTIVSCT [L15S]

Data returned:
[1.97, 2.46, 2.41, 1.96]

Provide each entry's protein stability index from the list below.
1. NWLGRPSKVLSLQDLCCRTIESCT [V21E]
2. NWLGRPSKVLSLQDKCCRTIVSCT [L15K]
3. NQLGRPSKVLSLQDLCCRTIVSCT [W2Q]

Data returned:
1: 1.88; 2: 2.16; 3: 3.14

Each of the following entries comes with a recorded value; kindly state protein stability index for each.
1. NWLGRPSKVLSLYDLCCRTIVSCT [Q13Y]
2. NWLGRPSKGLSLQDLCCRTIVSCT [V9G]
3. NWLGRPSKVLYLQDLCCRTIVSCT [S11Y]
4. NWLYRPSKVLSLQDLCCRTIVSCT [G4Y]

Data returned:
2.42
2.32
2.03
2.35

Required: protein stability index, one value per variant below.
1. NWLGRPSNVLSLQDLCCRTIVSCT [K8N]
2. NWLGRPSKVLSLQDLCCMTIVSCT [R18M]
3. NWLGRPSKVLSLQDLCCRTIVFCT [S22F]
4. NWLGRHSKVLSLQDLCCRTIVSCT [P6H]
5. NALGRPSKVLSLQDLCCRTIVSCT [W2A]
6. NWLGRPSKVLSLQALCCRTIVSCT [D14A]
7. NVLGRPSKVLSLQDLCCRTIVSCT [W2V]
8. NWLGRGSKVLSLQDLCCRTIVSCT [P6G]

Data returned:
[2.52, 1.72, 2.47, 2.21, 3.05, 1.99, 2.71, 2.25]

# batch size: 7; output protein stability index per entry
1. NWLGRPSKVLSLQDLCCRRIVSCT [T19R]
2. NWLGRMSKVLSLQDLCCRTIVSCT [P6M]
3. NWLGRPSKVLSLQDLCCKTIVSCT [R18K]
4. NWLGRPHKVLSLQDLCCRTIVSCT [S7H]
5. NWTGRPSKVLSLQDLCCRTIVSCT [L3T]
6. NWLGRPSKELSLQDLCCRTIVSCT [V9E]
7. NWLGRPSKVLSLQDLCCRTPVSCT [I20P]

Data returned:
[2.19, 1.76, 2.65, 1.96, 2.95, 2.3, 2.42]

# return protein stability index for each item in the list
1. YWLGRPSKVLSLQDLCCRTIVSCT [N1Y]
2. NWLGRPSKVLSLQDLCCRTIQSCT [V21Q]

Data returned:
1: 1.83; 2: 2.8

Would you be so kind as to report protein stability index for each listed record?
1. NWLGRPSKVLSLQDLCCRTIVSCS [T24S]
2. NWLGRPSKVLSLQDLCCRTEVSCT [I20E]
3. NWLGRCSKVLSLQDLCCRTIVSCT [P6C]

Data returned:
1. 2.62
2. 2.04
3. 2.13
